Origin of values: patent US20200157194A1

Target: T1, human GREM1 (hGREM1-His; SEQ ID NO: 595) (human, UniProt O60565 25-184)
T1 construct: also called biotin-hGREM1-His; recombinant human GREM1 protein
T1 sequence: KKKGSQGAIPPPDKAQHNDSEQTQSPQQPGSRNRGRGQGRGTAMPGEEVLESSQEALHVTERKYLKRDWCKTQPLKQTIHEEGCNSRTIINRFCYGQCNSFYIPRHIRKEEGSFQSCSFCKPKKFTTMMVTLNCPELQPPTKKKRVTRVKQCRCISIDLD
Assay: competition ELISA, biotin-hGREM1-His (100 pM) binding to coated hBMP4
Record form. Attribute: % blocked at maximum Ab tested (20 nM). Fill in for each entry.
// return numeric value only (unit: %, not printed)

Reported % blocked at maximum Ab tested (20 nM) of H4H2895N (antibody, human IgG4, V domains shown, H4H prefix = human IgG4 Fc) VH: EVQLVESGGGLVQPGGSLRLSCAASGFTVSSNYMSWVRQAPGKGLEWVSVIYSGGNTYYADSVKGRFTISRHNSKNTLYLQMNSLRAEDTAVYYCARDLGIKSDYWGQGTLVTVSS VL: EIVLTQSPDFQSVTPKEKVTITCRASQSIGTTLHWYQQKPDQSPKLLIKYVSQSLSGVPSRFSGSGSGTDFTLTINSLEAEDAATYYCHQSSSLPWTFGQGTKVEIK : 94

Data point: H4H6248P (antibody, human IgG4, V domains shown, H4H prefix = human IgG4 Fc) VH: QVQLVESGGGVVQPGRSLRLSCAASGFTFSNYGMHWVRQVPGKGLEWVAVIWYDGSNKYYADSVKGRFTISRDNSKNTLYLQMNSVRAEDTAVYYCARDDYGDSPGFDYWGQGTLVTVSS VL: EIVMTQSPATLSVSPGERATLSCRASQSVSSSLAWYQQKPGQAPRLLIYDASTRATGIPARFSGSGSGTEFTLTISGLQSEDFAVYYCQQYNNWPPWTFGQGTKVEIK ; % blocked at maximum Ab tested (20 nM) = 62

Entry H4H6243P (antibody, human IgG4, V domains shown, H4H prefix = human IgG4 Fc) VH: QVQLVQSGAEVKKPGASVKVSCKVSGYTLTELSMHWVRQAPGKGLEWMGGFDPEDGETIYAQKFQDRVTMTEDTSTDTAYMELSSLRSEDTAVYYCVTDDYEILPEYPYNMDVWGQGTTVTVSS VL: DIQMTQSPSSLSASVGDRVTITCRASQSISTYLNWYQQKPGKAPKLLIYAASSLQSGVPSRFSGSGSGTDFTLTIRSLQPEDFATYYCQQSHITPFTFGPGTKVDIK ; % blocked at maximum Ab tested (20 nM) = 92
